Entries and their MIC
System: E. cloacae 963
Assay: in vitro antibacterial activity, agar plate dilution method (MIC)
Type: cell-based
Details: Enterobacter cloacae, 963, 16 h, read-out: Minimum Inhibitory Concentration (MIC), E. cloacae 963; 10^6 CFU/ml
Protocol: The in vitro antibacterial activities of the compounds of the present invention against various microorganisms, were measured by the following agar plate dilution method. One platinum loopfull of each test microorganism incubated overnight in Mueller Hinton broth, was inoculated to Mueller Hinton agar (inoculum size: 10^6 CFU/ml). […] After incubation at 37° C. for 16 hours, the minimum inhibitory concentrations (MIC: μg/ml) were measured.

molecule	assay_target	MIC (µg/mL)
C=CCON=C(C(=O)NC1C(=O)N2C(C(=O)O)=C(CSc3nc(-c4ccc(O)c(O)c4)cs3)CSC12)c1csc(N)n1 (stereo not drawn)	E. cloacae 963	0.05
CCON=C(C(=O)N[C@@H]1C(=O)N2C(C(=O)[O-])=C(CSc3nc(-c4ccc(O)c(O)c4)cs3)CS[C@H]12)c1csc(N)n1.[Na+]	E. cloacae 963	0.1
CC(=O)Oc1ccc(-c2nc(SCC3=C(C(=O)O)N4C(=O)C(NC(=O)C(=NOC(C(=O)O)c5ccccc5)c5csc(N)n5)C4SC3)sc2CC(=O)O)cc1OC(C)=O (single isomer, unassigned)	E. cloacae 963	0.39

====

test system: P. vulgaris No. 33; assay: in vitro antibacterial activity, agar plate dilution method (MIC); type: cell-based; conditions: Proteus vulgaris, NO.33, 16 h, read-out: Minimum Inhibitory Concentration (MIC), *P. vulgaris No. 33, lactamase-producing strain; 10^6 CFU/ml
assay_endpoint: log10 of MIC (log10 of the value in mg/L)

compound	assay_target	log10 of MIC
CCON=C(C(=O)N[C@@H]1C(=O)N2C(C(=O)[O-])=C(CSc3nc(-c4ccc(O)c(O)c4)cs3)CS[C@H]12)c1csc(N)n1.[Na+] [compound 48]	P. vulgaris No. 33	-1.30
CC(C)(O/N=C(\C(=O)N[C@@H]1C(=O)N2C(C(=O)O)=C(CSc3nc(-c4ccc(O)cc4)cs3)CS[C@H]12)c1csc(N)n1)C(=O)O [compound 12, reference compound]	P. vulgaris No. 33	-0.41
CON=C(C(=O)NC1C(=O)N2C(C(=O)O)=C(CSc3nc(-c4ccc(O)c(O)c4)c(CC(=O)O)s3)CSC12)c1csc(N)n1 (stereo not drawn) [compound 58]	P. vulgaris No. 33	-1.60
Nc1nc(/C(=N/OCc2ccccc2)C(=O)N[C@@H]2C(=O)N3C(C(=O)O)=C(CSc4nnc(-c5ccc(O)c(O)c5)o4)CS[C@H]23)cs1 [Ex. 13]	P. vulgaris No. 33	-1.60
CCON=C(C(=O)N[C@@H]1C(=O)N2C(C(=O)[O-])=C(CSc3nc(-c4ccc(OC(C)=O)c(OC(C)=O)c4)cs3)CS[C@H]12)c1csc(N)n1.[Na+] [Ex. 49]	P. vulgaris No. 33	-1.30
CC(C)(O/N=C(\C(=O)N[C@@H]1C(=O)N2C(C(=O)O)=C(CSc3nnc(-c4ccc(O)c(O)c4)s3)CS[C@H]12)c1csc(N)n1)C(=O)O [Ex. 34]	P. vulgaris No. 33	-1.60
CO/N=C(\C(=O)N[C@@H]1C(=O)N2C(C(=O)O)=C(CSc3ncc(-c4ccccc4)o3)CS[C@H]12)c1csc(N)n1 [compound 21, reference compound]	P. vulgaris No. 33	-0.11
CCO/N=C(\C(=O)N[C@@H]1C(=O)N2C(C(=O)O)=C(CSc3nnc(-c4ccc(OC(C)=O)c(OC(C)=O)c4)o3)CS[C@H]12)c1csc(N)n1 [Ex. 6]	P. vulgaris No. 33	-1.90
C=CCO/N=C(\C(=O)N[C@@H]1C(=O)N2C(C(=O)O)=C(CSc3nnc(-c4ccc(O)c(O)c4)s3)CS[C@H]12)c1csc(N)n1 [compound 30]	P. vulgaris No. 33	-0.41
Nc1nc(C(=NOC2CCCC2)C(=O)NC2C(=O)N3C(C(=O)O)=C(CSc4nc(C(=O)O)c(-c5ccc(O)c(O)c5)s4)CSC23)cs1 (stereo not drawn) [Ex. 54]	P. vulgaris No. 33	-1.60
CC(=O)Oc1ccc(-c2nc(SCC3=C(C(=O)O)N4C(=O)C(NC(=O)C(=NOC5(C(=O)O)CC5)c5csc(N)n5)C4SC3)sc2CC(=O)O)cc1OC(C)=O (stereo not drawn) [Example 60 (II)]	P. vulgaris No. 33	-1.60
C=CCON=C(C(=O)NC1C(=O)N2C(C(=O)O)=C(CSc3nc(-c4ccc(O)c(O)c4)cs3)CSC12)c1csc(N)n1 (stereo not drawn) [Ex. 42]	P. vulgaris No. 33	-1.30

====

Entries and their MIC
system: A. calcoaceticus No. 4; experiment: in vitro antibacterial activity, agar plate dilution method (MIC); type: cell-based, Acinetobacter calcoaceticus; conditions: Acinetobacter calcoaceticus, NO.4, 16 h, A. calcoaceticus No. 4; 10^6 CFU/ml; read-out: Minimum Inhibitory Concentration (MIC)

molecule	MIC
CC(C)(ON=C(C(=O)NC1C(=O)N2C(C(=O)O)=C(CSc3nc(-c4ccc(O)c(O)c4)c(CC(=O)O)s3)CSC12)c1csc(N)n1)C(=O)O (stereo not drawn) [Example 59 (I)]	0.2 µg/mL
Nc1nc(/C(=N/OCC(=O)O)C(=O)N[C@@H]2C(=O)N3C(C(=O)O)=C(CSc4nnc(-c5ccc(O)c(O)c5)o4)CS[C@H]23)cs1 [compound 10]	0.05 µg/mL
CO/N=C(\C(=O)N[C@@H]1C(=O)N2C(C(=O)O)=C(CSc3nc(-c4ccc(O)cc4)c(CC(=O)O)s3)CS[C@H]12)c1csc(N)n1 [compound 17, reference compound]	100 µg/mL

====

tested on: Ps. cepacia 23; assay: in vitro antibacterial activity, agar plate dilution method (MIC); type: cell-based, Pseudomonas cepacia; details: Burkholderia cepacia, 16 h; Ps. cepacia 23; 10^6 CFU/ml; read-out: Minimum Inhibitory Concentration (MIC)
Counter-ions that a name gives are not always drawn.
Entries and their MIC
assay_endpoint: MIC (µg/mL)

compound	rel	readout_number
CO/N=C(\C(=O)N[C@@H]1C(=O)N2C(C(=O)O)=C(CSc3nnc(-c4ccccc4)s3)CS[C@H]12)c1csc(N)n1 [compound 5, trifluoroacetate, reference compound]	=	3.12
Nc1nc(C(=NOCc2ccccc2)C(=O)NC2C(=O)N3C(C(=O)O)=C(CSc4nc(C(=O)O)c(-c5ccc(O)c(O)c5)s4)CSC23)cs1 (stereo not drawn)	<	0.006
Nc1nc(/C(=N/OC(C(=O)O)c2ccccc2)C(=O)N[C@@H]2C(=O)N3C(C(=O)O)=C(CSc4nnc(-c5ccc(O)c(O)c5)o4)CS[C@H]23)cs1 (single isomer, unassigned) [Example 24 DA]	<	0.006
Nc1nc(/C(=N/OC(C(=O)O)c2ccccc2)C(=O)N[C@@H]2C(=O)N3C(C(=O)O)=C(CSc4nnc(-c5ccc(O)c(O)c5)o4)CS[C@H]23)cs1 (stereo partly drawn) [Ex. 15]	<	0.006
CC(C)(O/N=C(\C(=O)N[C@@H]1C(=O)N2C(C(=O)O)=C(CSc3nnc(-c4ccc(O)c(O)c4)o3)CS[C@H]12)c1csc(N)n1)C(=O)O	<	0.006
C=CCO/N=C(\C(=O)N[C@@H]1C(=O)N2C(C(=O)O)=C(CSc3nnc(-c4ccc(O)c(O)c4)o3)CS[C@H]12)c1csc(N)n1	=	0.025
Nc1nc(/C(=N/OCC(=O)O)C(=O)N[C@@H]2C(=O)N3C(C(=O)O)=C(CSc4nnc(-c5ccc(O)c(O)c5)o4)CS[C@H]23)cs1	<	0.006
C#CCO/N=C(\C(=O)N[C@@H]1C(=O)N2C(C(=O)O)=C(CSc3nnc(-c4ccc(O)c(O)c4)o3)CS[C@H]12)c1csc(N)n1	=	0.05
CCO/N=C(\C(=O)N[C@@H]1C(=O)N2C(C(=O)O)=C(CSc3nnc(-c4ccc(O)c(O)c4)o3)CS[C@H]12)c1csc(N)n1	<	0.006
C=CCON=C(C(=O)NC1C(=O)N2C(C(=O)O)=C(CSc3nc(-c4ccc(O)c(O)c4)cs3)CSC12)c1csc(N)n1 (stereo not drawn)	=	0.1
Nc1nc(/C(=N/Oc2ccccc2)C(=O)N[C@@H]2C(=O)N3C(C(=O)O)=C(CSc4nnc(-c5ccc(O)c(O)c5)o4)CS[C@H]23)cs1	=	0.025
CC(C)(O/N=C(\C(=O)N[C@@H]1C(=O)N2C(C(=O)O)=C(CSc3ncc(-c4ccc(O)c(O)c4)o3)CS[C@H]12)c1csc(N)n1)C(=O)O	<	0.006

====

Tested on: K. pneumoniae No. 42
Assay: in vitro antibacterial activity, agar plate dilution method (MIC)
Format: cell-based
Conditions: Klebsiella pneumoniae, NO.42, 16 h, read-out: Minimum Inhibitory Concentration (MIC), *K. pneumoniae No. 42, lactamase-producing strain; 10^6 CFU/ml
Description: The in vitro antibacterial activities of the compounds of the present invention against various microorganisms, were measured by the following agar plate dilution method. One platinum loopfull of each test microorganism incubated overnight in Mueller Hinton broth, was inoculated to Mueller Hinton agar (inoculum size: 10^6 CFU/ml). […] After incubation at 37° C. for 16 hours, the minimum inhibitory concentrations (MIC: μg/ml) were measured.

molecule	unit_text	MIC
C=CCON=C(C(=O)NC1C(=O)N2C(C(=O)O)=C(CSc3nc(-c4ccc(O)c(O)c4)cs3)CSC12)c1csc(N)n1 (stereo not drawn)	µg/mL	0.2
CC(C)(O/N=C(\C(=O)N[C@@H]1C(=O)N2C(C(=O)O)=C(CSc3ncc(-c4ccc(O)c(O)c4)o3)CS[C@H]12)c1csc(N)n1)C(=O)O	µg/mL	0.05
CCON=C(C(=O)N[C@@H]1C(=O)N2C(C(=O)[O-])=C(CSc3ncc(-c4ccc(O)c(O)c4)o3)CS[C@H]12)c1csc(N)n1.[Na+]	µg/mL	0.1
CC(C)(ON=C(C(=O)NC1C(=O)N2C(C(=O)O)=C(CSc3nc(-c4ccc(O)c(O)c4)c(CC(=O)O)s3)CSC12)c1csc(N)n1)C(=O)O (stereo not drawn)	µg/mL	0.2
Nc1nc(C(=NOC2(C(=O)O)CC2)C(=O)NC2C(=O)N3C(C(=O)O)=C(CSc4nc(-c5ccc(O)c(O)c5)c(CC(=O)O)s4)CSC23)cs1 (stereo not drawn)	µg/mL	0.39
Nc1nc(/C(=N/OC(C(=O)O)c2ccc(O)c(O)c2)C(=O)N[C@@H]2C(=O)N3C(C(=O)O)=C(CSc4nnc(-c5ccc(O)c(O)c5)o4)CS[C@H]23)cs1 (stereo partly drawn)	µg/mL	0.2
